# Tested on: HeLa Kyoto;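 note: HeLa Kyoto cells arrested at G1/S by double thymidine block, proteins quantified by TMT10plex mass spectrometry in mild NP-40 versus SDS extracts, three biological replicates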
# Test details: solubility in G1/S (NP-40 vs SDS abundance) (log2 ratio); higher = more soluble
# Run conditions: cell cycle stage: G1/S
Exercise: for every item that follows, state its recorded solubility in G1/S (log2).
Lab note: jot down the number only; don't add units.

Entry MSALEWYAHKSLGDGIFWIQERFYESGNRANIWLVRGSEQDVVIDTGLGLRSLPEYLYSSGLLQDREAKEDAARRPLLAVATHVHFDHSGGLYQFDRVAVHHAEAEALARGDNFETVTWLSDSEVVRTPSPGWRARQFRVQAVQPTLILQDGDVINLGDRQLTVMHMPGHSRGSICLHDKDRKILFSGDVVYDGSLIDWLPYSRISDYVGTCERLIELVDRGLVEKVLPGHFNTFGAERLFRLASNYISKAGICHKVSTFAMRSLASLALRVTNSRTSP [MBLAC2] — recorded solubility in G1/S (log2) = -0.203

The sequence listed as MALPHDSNETSYLLPPNNEDWGRQTIPDFVYGQKDLMAEGIQWPRNAPGIPDALPQSPFDAALCSAWKQRVELGLFRYRLRELQTQILPGAVGFVAQLNVERGVQRRPPQTIKSVRQAFDPVQFNFNKIRPGEVLFRLHREPDLPGTLLQEDILVVINVSPLEWGHVLLVPEPARQLPQRLLPGALRAGIEAVLLSLHPGFRVGFNSLGGLASVNHLHLHGYYLAHRLPVEQAPSEPLDPGGHLHLLQDLPAPGFLFYTRGPGPDLESLISRVCRATDYLTDHEIAHNLFVTRGAPPGKTSPSSALTGVRVILWARKSSFGIKDGEAFNVALCELAGHLPVKTSQDFSSLTEAAAVALIQDCRLPPSQAEDVQAALVALMSQEEQ [GDPGP1] shows solubility in G1/S (log2) equal to 0.217

Measured solubility in G1/S (log2) of MMAAGAALALALWLLMPPVEVGGAGPPPIQDGEFTFLLPAGRKQCFYQSAPANASLETEYQVIGGAGLDVDFTLESPQGVLLVSESRKADGVHTVEPTEAGDYKLCFDNSFSTISEKLVFFELIFDSLQDDEEVEGWAEAVEPEEMLDVKMEDIKESIETMRTRLERSIQMLTLLRAFEARDRNLQEGNLERVNFWSAVNVAVLLLVAVLQVCTLKRFFQDKRPVPT [TMED1] : 0.437
